System: NADPH oxidase 1 (Homo sapiens)
Measurement protocol: inhibitors of human NADPH oxidase 1 (Nox1) (AID 1792)
Condition info: HT29 cells, luminol chemiluminescence ROS; at 6.7 µM; active compounds read high
Out of some 16,000 compounds screened, about 130 (0.81%) were called active. Many of the other results were omitted from the sample, so actives are more common in it than they were.
Assay metric: inhibition (%)

{"columns": ["Compound", "Reported value"],
 "data": [
  ["O=C(O)CC1(CC(=O)NCc2ccco2)CCCCC1", -9.49],
  ["O=C(O)C#Cc1cccc2ccccc12", -49.7],
  ["CCOC(=O)O/N=C(\\N)c1ccc(Cl)cc1", 26],
  ["CN1CCCCC(C2=C(Cl)C(=O)CCC2)C1=O (centres undefined)", -2.08],
  ["O=C1CCC(=O)N(c2ccccc2)N1", 5.82],
  ["CSc1sc(C(=O)NC2CC2)c(-c2ccc(Cl)cc2)c1C#N", -9.35],
  ["Cc1c(C(=O)Nc2ccccc2)sc2cc(C(C)(C)C)sc12", 4.35],
  ["O=C(CSC(=S)N1CCCCC1)c1c(F)cccc1F", 16],
  ["COc1ccc(NC(NC(=O)c2ccc(OC)cc2)(C(F)(F)F)C(F)(F)F)cc1", -26.1],
  ["O=C(NNC(=O)C1c2ccccc2Oc2ccccc21)c1cccc(F)c1", -30.2],
  ["Cc1noc(C)c1S(=O)(=O)NCc1cc(F)cc2c1OCOC2", -23.9],
  ["O=C(NCc1cc2ccccc2s1)C1CN(C(c2ccccc2)c2ccccc2)C1", -2.49],
  ["N#CCc1ccc(NC(=O)c2ccccc2C(=O)Nc2ccc(CC#N)cc2)cc1", -21.7],
  ["COc1cccc2c1c(NS(=O)(=O)c1cn(C)cn1)nn2C", -41.2],
  ["O=[N+]([O-])c1ccc(CSc2nc3cc(Cl)c(F)cc3[nH]2)cc1", 10.8],
  ["O=C1NCCN1CCNS(=O)(=O)c1cc(Cl)sc1Cl", 14.5],
  ["CN(NS(=O)(=O)CS(C)(=O)=O)c1ncccc1[N+](=O)[O-]", -4.72],
  ["Cc1ccc(S(C)(=O)=NC(=O)NS(=O)(=O)Oc2ccc(Cl)cc2Cl)cc1 (centres undefined)", -64.7],
  ["COC(=O)c1ccc(/C=C2\\C(=O)Nc3ccccc32)n1-c1ccc(F)cc1", -9.26],
  ["CC(C)CC(NC(=O)OC(C)(C)C)C(=O)OCc1ccc(CC(=O)O)cc1 (centres undefined)", -5],
  ["O=C(CNC(=O)c1ccccc1F)c1ccc(Br)cc1", -16.2],
  ["COc1ccc(S(=O)c2ccccc2C(=O)O)c(C(=O)O)c1 (centres undefined)", -11.3],
  ["Cc1ccc(CC(=O)c2cccnc2)cc1", 13.9],
  ["O=C1C(Cl)=C(Oc2cc(Cl)c(Cl)cc2Cl)C(=O)c2ccccc21", 64],
  ["N#Cc1cccnc1NNC(=O)Nc1ccc(OCc2ccccc2)cc1", 61.8],
  ["FC(F)(F)c1cc(-c2ccc(Br)cc2)n[nH]1", -47],
  ["CC(C)(C)c1ccc(NC(=O)c2ccco2)c(NC(=O)C(Cl)(Cl)Cl)c1", 6.12],
  ["CC1(C)C=Cc2cc(-c3noc(-c4ccccc4)n3)ccc2O1", -38.9],
  ["CCCCCCCCCCCCCC#CC(O)C(N)CO (centres undefined)", -24.7]
]}

Data provenance: PubChem BioAssay AID1792
